Consider the following compounds and their measured pEC50 readings.
assayedSystem: cellular kallikrein activity (Homo sapiens (Human), UniProt P03952)
Sequence (P03952 391-638): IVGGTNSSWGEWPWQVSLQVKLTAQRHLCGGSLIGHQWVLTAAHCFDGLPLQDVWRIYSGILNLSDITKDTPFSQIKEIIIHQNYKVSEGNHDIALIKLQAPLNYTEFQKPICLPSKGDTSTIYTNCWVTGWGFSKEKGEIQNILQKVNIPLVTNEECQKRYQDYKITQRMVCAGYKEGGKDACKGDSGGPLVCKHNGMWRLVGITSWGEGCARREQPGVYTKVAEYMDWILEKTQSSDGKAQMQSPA
Sequence (P03952 20-390 partner): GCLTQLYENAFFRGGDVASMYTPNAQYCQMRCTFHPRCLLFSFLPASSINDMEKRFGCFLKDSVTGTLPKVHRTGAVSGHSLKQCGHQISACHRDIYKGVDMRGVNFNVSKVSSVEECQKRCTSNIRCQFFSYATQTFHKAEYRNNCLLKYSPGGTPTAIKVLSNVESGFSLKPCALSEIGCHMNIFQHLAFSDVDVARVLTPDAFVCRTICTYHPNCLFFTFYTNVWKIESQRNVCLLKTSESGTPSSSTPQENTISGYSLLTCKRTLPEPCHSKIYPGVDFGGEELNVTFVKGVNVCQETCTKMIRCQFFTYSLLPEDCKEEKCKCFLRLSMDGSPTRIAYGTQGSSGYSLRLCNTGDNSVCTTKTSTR
assayOverview: In vitro cellular assay (contact assay): kallikrein activity in ellagic acid-activated human plasma, Z-FR-2-AMC substrate
experimentalSetup: human plasma activated with ellagic acid, 37° C.
pEC50: −log10 of the molar value.
observable: pEC50

>  <compound>
Cc1cc(N)nc(C)c1CNC(=O)c1cc(CC(N)=O)nc(Cc2ccc3ncc(Cl)cc3c2)c1

>  <observable>
pEC50

>  <assayValue>
> 7.00

$$$$
>  <compound>
Cc1cc(N)nc(C)c1CNC(=O)c1ccnc(C(O)c2ccc3ncc(Cl)cc3c2)c1 (stereo not shown)

>  <observable>
pEC50

>  <assayValue>
6.00 to 7.00

$$$$
>  <compound>
Cc1cc(N)nc(C)c1CNC(=O)c1ccnc(Cc2cc(S(N)(=O)=O)c3ncc(Cl)cc3c2)c1

>  <observable>
pEC50

>  <assayValue>
> 7.00

$$$$
>  <compound>
CCc1cnc2ccc(Cc3cc(C(=O)NCc4ccc5c(N)nccc5c4)ccn3)cc2c1

>  <observable>
pEC50

>  <assayValue>
> 7.00

$$$$
>  <compound>
Cc1cc(N)nc(C)c1CNC(=O)c1ccnc(Cc2ccc3nc(C)c(Cl)cc3c2)c1

>  <observable>
pEC50

>  <assayValue>
> 7.00

$$$$
>  <compound>
Cc1cnc2c(S(N)(=O)=O)cc(Cc3cc(C(=O)NCc4ccc5c(N)nccc5c4)ccn3)cc2c1

>  <observable>
pEC50

>  <assayValue>
> 7.00

$$$$
>  <compound>
Cc1cc(N)nc(C)c1CNC(=O)c1ccnc(Cc2cc(CN)c3ncc(Cl)cc3c2)c1

>  <observable>
pEC50

>  <assayValue>
> 7.00

$$$$
>  <compound>
Cc1cc(N)nc(C)c1CNC(=O)c1ccnc(Cc2cc(-c3nnn[nH]3)c3ncc(Cl)cc3c2)c1

>  <observable>
pEC50

>  <assayValue>
6.00 to 7.00

$$$$
>  <compound>
Cc1cc(N)nc(C)c1CNC(=O)c1ccnc(Cc2cnc3cc(F)c(Cl)cc3c2)c1

>  <observable>
pEC50

>  <assayValue>
> 7.00

$$$$
>  <compound>
O=C(NCc1ccc2[nH]cc(Cl)c2c1F)c1ccnc(Cc2ccc3ncc(C4CC4)cc3c2)c1

>  <observable>
pEC50

>  <assayValue>
6.00 to 7.00

$$$$
>  <compound>
Cc1cc(N)nc(C)c1CNC(=O)c1ccnc(Cc2ccc3ncc(Cl)cc3c2F)c1

>  <observable>
pEC50

>  <assayValue>
6.00 to 7.00

$$$$
>  <compound>
CCc1cnc2ccc(Cc3cc(C(=O)NCc4c(C)cc(N)nc4C)ccn3)cc2c1

>  <observable>
pEC50

>  <assayValue>
> 7.00

$$$$
>  <compound>
Nc1nccc2cc(CNC(=O)c3ccnc(Cc4ccc5ncc(C(F)(F)F)cc5c4)c3)c(F)cc12

>  <observable>
pEC50

>  <assayValue>
6.00 to 7.00

$$$$
>  <compound>
Cc1c(CNC(=O)c2ccnc(Cc3ccc4ncc(C(F)(F)F)cc4c3)c2)ccc2c(N)nccc12

>  <observable>
pEC50

>  <assayValue>
> 7.00

$$$$
>  <compound>
O=C(NCc1n[nH]c2ccc(Cl)cc12)c1ccnc(Cc2ccc3ncc(C4CC4)cc3c2)c1

>  <observable>
pEC50

>  <assayValue>
6.00 to 7.00

$$$$
>  <compound>
Cc1cnc2c(S(N)(=O)=O)cc(Cc3cc(C(=O)NCc4cnc5[nH]cc(Cl)c5c4)ccn3)cc2c1

>  <observable>
pEC50

>  <assayValue>
> 7.00

$$$$
